test.target: mu opioid receptor (Rattus norvegicus, UniProt P33535)
Construct: the forebrains were homogenized in Tris buffer in a Teflon®-glass homogenizer; from tissue; host or cells: forebrain of male Wistar rats (particulate membrane preparation)
Sequence (P33535 whole entry): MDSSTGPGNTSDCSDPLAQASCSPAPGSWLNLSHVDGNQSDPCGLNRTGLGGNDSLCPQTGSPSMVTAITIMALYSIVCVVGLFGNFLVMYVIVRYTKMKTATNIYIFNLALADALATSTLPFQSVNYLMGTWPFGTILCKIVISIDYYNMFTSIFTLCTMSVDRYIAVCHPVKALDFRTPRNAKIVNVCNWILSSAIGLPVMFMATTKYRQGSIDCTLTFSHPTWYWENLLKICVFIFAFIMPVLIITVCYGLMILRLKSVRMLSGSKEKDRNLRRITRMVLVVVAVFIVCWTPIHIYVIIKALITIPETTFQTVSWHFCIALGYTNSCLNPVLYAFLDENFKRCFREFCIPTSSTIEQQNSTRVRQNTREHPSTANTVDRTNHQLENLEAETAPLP
experiment.notes: Rat brain mu opioid receptor binding assay
test.conditions: rMOR (Ki, nM): Rat mu opioid receptor binding constant, rat forebrain membranes; [3H]DAMGO, 25° C., 2.5 h
Quick reference for log10(Ki) among some compounds
Use the decimal logarithm of Ki (nM).

These solved cases illustrate the format of a correct answer.
Specify measured log10(Ki) for Clc1ccc(Nc2cccc3c2Oc2ccccc2C3=C2CC3CCC(C2)N3)cc1 [Cpd 61] .
3.50

Specify measured log10(Ki) for Oc1cccc2c1Oc1ccccc1C2=C1CC2CCC(C1)N2Cc1ccccn1 (single isomer, unassigned) [Cpd 60] .
-2.00

Specify measured log10(Ki) for Oc1cccc2c1Oc1ccccc1C2=C1CC2CCC(C1)N2Cc1cccnc1 [Cpd 31] .
0.09

Specify measured log10(Ki) for Oc1cccc2c1Oc1ccccc1C2=C1CC2CCC(C1)N2Cc1ccccc1 (single isomer, unassigned) [Cpd 45] .
1.06

Specify measured log10(Ki) for CN(C)C(=O)c1cccc2c1Oc1ccccc1C2=C1CC2CCC(C1)N2 [Cpd 11] .
2.67

Specify measured log10(Ki) for Oc1cccc2c1Oc1ccccc1C2=C1CCNCC1 [Cpd 16, 9-Piperidin-4-ylidene-9H-xanthen-4-ol] .
2.89

Further cases:
Specify measured log10(Ki) for NC(=O)c1cccc2c1Oc1ccccc1C2=C1CC2CCC(C1)N2Cc1ccoc1 [Cpd 4] .
0.40

Specify measured log10(Ki) for N=C(NO)c1cccc2c1Oc1ccccc1C2=C1CC2CCC(C1)N2 (single isomer, unassigned) [Cpd 42] .
1.75

Specify measured log10(Ki) for O=C(NCCc1ccccc1)c1cccc2c1Oc1ccccc1C2=C1CC2CCC(C1)N2 (single isomer, unassigned) [Cpd 55] .
2.30

Specify measured log10(Ki) for O=C(Nc1ccccc1)c1cccc2c1Oc1ccccc1C2=C1CC2CCC(C1)N2 (single isomer, unassigned) [Cpd 48] .
0.55

Specify measured log10(Ki) for CN(C)CCNC(=O)c1cccc2c1Oc1ccccc1C2=C1CC2CCC(C1)N2 [Cpd 15] .
2.53

Specify measured log10(Ki) for O=C(NCCc1ccccc1)c1cccc2c1Oc1ccccc1C2=C1CC2CCC(C1)N2 (single isomer, unassigned) [Cpd 56] .
0.84

Specify measured log10(Ki) for O=C(Nc1ccccc1)c1cccc2c1Oc1ccccc1C2=C1CC2CCC(C1)N2 [Cpd 12] .
1.51

Specify measured log10(Ki) for c1cncc(Nc2cccc3c2Oc2ccccc2C3=C2CC3CCC(C2)N3)c1 [Cpd 62] .
2.20

Specify measured log10(Ki) for O=CNc1cccc2c1Oc1ccccc1C2=C1CC2CCC(C1)N2 [Cpd 44] .
1.66

Specify measured log10(Ki) for Oc1cccc2c1Oc1ccccc1C2=C1CC2CCC(C1)N2Cc1ccoc1 (single isomer, unassigned) [Cpd 57] .
1.56
